Listed here are molecules together with their documented MUSCDO AC = Musca domestica (knockdown), score.
- Tested on: Musca domestica
- condition-parameters: 500 ppm by weight; knockdown assessed 15 minutes after treatment
readout-kind: MUSCDO AC = Musca domestica (knockdown), score

| line-notation | value-observed |
| --- | --- |
| Cc1nc2cc(CC(=O)Nc3snc(C)c3Br)ccc2o1 | 5 (5 indicates 40-79% mortality) |
| CCCCc1nc2cc(CC(=O)Nc3snc(C)c3Cl)ccc2o1 | 0 (0 indicates less than 40% mortality) |
| COCCOCN(C(=O)Cc1ccc2oc(C)nc2c1)c1snc(C)c1Cl | 0 (0 indicates less than 40% mortality) |
| CCc1nc2cc(CC(=O)Nc3snc(C)c3Cl)ccc2o1 | 9 (9 indicates 80-100% mortality) |
| CC(C)=Cc1nc2cc(CC(=O)Nc3snc(C)c3Cl)ccc2o1 | 5 (5 indicates 40-79% mortality) |
| Cc1nsc(NC(=O)Cc2ccc3oc(SC(C)(C)C)nc3c2)c1Cl | 0 (0 indicates less than 40% mortality) |
| Cc1nsc(N(C(=O)Cc2ccc3oc(CC(C)(C)C)nc3c2)C(C)C)c1Cl | 0 (0 indicates less than 40% mortality) |
| CCCc1nc2ccc(CC(=O)Nc3snc(C)c3Cl)cc2o1 | 0 (0 indicates less than 40% mortality) |
| CCCc1nc2cc(CC(=O)N(CC)c3snc(C)c3Cl)ccc2o1 | 0 (0 indicates less than 40% mortality) |
| C#CCN(C(=O)Cc1ccc2oc(CC(C)(C)C)nc2c1)c1snc(C)c1Cl | 0 (0 indicates less than 40% mortality) |

----------
- Test system: Septoria nodorum
- protocol-text: Fungicidal test, Septoria nodorum (LEPTNO) on wheat, PRCO
- Assay type: in vivo
- condition-parameters: METHOD 2 (unbanded)
Listed here are compounds together with their documented LEPTNO 1 d Prot/Foir PRCO.

| compound | LEPTNO 1 d Prot/Foir PRCO |
| --- | --- |
| CCC(C)c1nc2cc(CC(=O)Nc3snc(C)c3Cl)ccc2o1 (stereo not shown) | 28 |
| CCc1nsc(NC(=O)Cc2ccc3oc(C)nc3c2)c1Cl | 9 |
| Cc1nsc(NC(=O)Cc2ccc3oc(CC(C)C)nc3c2)c1Cl | 28 |
| Cc1nsc(NC(=S)Cc2ccc3oc(CC(C)(C)C)nc3c2)c1Cl | −2 |
| Cc1nsc(NC(=O)Cc2ccc3oc(C4CCCCC4)nc3c2)c1Cl | −15 |
| CCCC(C)c1nc2cc(CC(=O)Nc3snc(C)c3Cl)ccc2o1 (stereo not shown) | 17 |
| Cc1nsc(NC(=O)Cc2ccc3oc(-c4ccc(C(C)(C)C)cc4)nc3c2)c1Cl | −13 |
| Cc1nsc(NC(=O)Cc2ccc3oc(CSc4ccccc4)nc3c2)c1Cl | 2 |
| Cc1nsc(NC(=O)Cc2ccc3nc(C(C)(C)C)[nH]c3c2)c1Cl | −4 |
| CCOc1nc2cc(CC(=O)Nc3snc(C)c3Cl)ccc2o1 | 67 |

----------
- Tested on: Venturia inaequalis
- protocol-text: Fungicidal test, Venturia inaequalis (VENTIN) on apples, PRCO
- Assay type: in vivo
- condition-parameters: METHOD 2 (unbanded)

| line-notation | VENTIN 1 d Prot/Foir PRCO |
| --- | --- |
| Cc1nc2cc(CC(=O)Nc3snc(C)c3C#N)ccc2o1 | 19 |
| Cc1nsc(NC(=O)Cc2ccc3oc(C(C)(C)C)nc3c2)c1Cl | 33 |
| Cc1nc2cc(CC(=O)Nc3snc(C)c3Cl)ccc2o1 | 97 |
| CCCc1nc2cc(CC(=O)Nc3snc(C)c3Cl)ccc2s1 | 55 |
| Cc1nsc(NC(=O)Cc2ccc3oc(SC(C)C)nc3c2)c1Cl | 60 |
| Cc1nsc(NC(=O)Cc2ccc3oc(C(F)(F)F)nc3c2)c1Cl | 15 |
| Cc1nsc(NC(=O)Cc2ccc3oc(C4CCCC4)nc3c2)c1Cl | 53 |
| Cc1nsc(NC(=O)Cc2ccc3oc(CCc4ccccc4)nc3c2)c1Cl | −11 |
| Cc1nsc(NC(=O)Cc2ccc3oc(-c4ccc(C(C)(C)C)cc4)nc3c2)c1Cl | −47 |
| CSc1nc2cc(CC(=O)Nc3snc(C)c3Cl)ccc2o1 | 11 |
| Cc1nsc(NC(=O)Cc2ccc3ocnc3c2)c1Cl | 25 |
| Cc1nsc(NC(=O)Cc2ccc3nc(C(C)(C)C)[nH]c3c2)c1Cl | 38 |
| Cc1nsc(NC(=O)Cc2ccc3oc(Cc4c(F)c(F)c(F)c(F)c4F)nc3c2)c1Cl | 5 |
| Cc1nsc(NC(=O)Cc2ccc3oc(NC(C)(C)C)nc3c2)c1Cl | 98 |
| COCc1nc2cc(CC(=O)Nc3snc(C)c3Cl)ccc2o1 | 60 |
| CCCN(C(=O)Cc1ccc2oc(CC(C)(C)C)nc2c1)c1snc(C)c1Cl | −14 |
| CCc1nc2cc(CC(=O)Nc3snc(C)c3Cl)ccc2o1 | 67 |
| CCc1nsc(NC(=O)Cc2ccc3oc(CC(C)(C)C)nc3c2)c1Cl | 24 |
| CCOc1nc2cc(CC(=O)Nc3snc(C)c3Cl)ccc2o1 | 22 |
| COc1nc2cc(CC(=O)Nc3snc(C)c3Cl)ccc2o1 | 65 |
